# assay_details: Toxicity liver stage against HepG2, at 10uM
# Assay type: cell-based
# Design: test concentration 10 uM, cell line HepG2-A16-CD81EGFP
# test_conditions: human, HepG2-A16-CD81EGFP cells; read-out: INHIBITION
Give cytotoxicity at 10 µM for every item shown.
Answers are plain numbers, in %.

Below are worked cases with known answers.
compound="CC(=O)c1cc(CN2CCCCC2c2nc3cc(F)ccc3[nH]2)cs1 (stereo not drawn)" endpoint_value=-1.08
compound="c1ccc(Cn2ccnc2CN2CCOC(Cn3cccn3)C2)cc1 (stereo not drawn)" endpoint_value=-3.78

Report cytotoxicity at 10 µM for each item below.
1. Cn1cnnc1-c1cncc(NCc2cccc3c2OC(C)(C)C3)c1
2. Cc1ccc(F)cc1NC(=O)C1CCCN1C(=O)C(C)C (stereo not drawn)
3. Cc1csc(CN(C)C(C)C(=O)N2CCc3ccccc3C2)n1 (stereo not drawn)
4. CCOc1ccc(NS(=O)(=O)c2cc(C)c(C(=O)O)s2)c(C)c1

[7.84, -4.93, -11.7, -3.21]

Report cytotoxicity at 10 µM for each item below.
1. CS(=O)(=O)CC(=O)N1C[C@H]2CCC[C@@]2(COCc2ccccn2)C1
2. Cc1csc(N2CCCN(Cc3ccn(C)c(=O)c3)CC2)n1
3. COc1ccc2c(c1)CCN(CCC(=O)O)CC2
4. CNS(=O)(=O)CC(=O)N1CCCc2cc(C(C)C)ccc21

4.35
12.8
-9.21
11.8

Report cytotoxicity at 10 µM for each item below.
1. CCc1cc(CN(C)C(=O)c2cc(=O)[nH]c(=O)[nH]2)on1
2. Cc1cccnc1CN1CCCCC1c1ccn2ccnc2n1 (stereo not drawn)

8.71
0.498

Report cytotoxicity at 10 µM for each item below.
1. O=c1c(NCCNCCO)c(N2CCN(c3ccc(F)cc3)CC2)c1=O
2. Cn1cc(CN2CC[C@H]3OCC[C@@H](C(=O)NCc4ccco4)[C@@H]3C2)cn1

[-5.46, 6.79]

* * *

# assay_details: Toxicity liver stage against HepG2, at 10uM
# Assay type: cell-based
# Parameters: test concentration 10 uM, cell line HepG2-A16-CD81EGFP
# test_conditions: human, HepG2-A16-CD81EGFP cells; read-out: INHIBITION
measured_quantity: cytotoxicity at 10 µM (%)
Numbers only, in %.

Below are worked cases with known answers.
compound=O=C(c1ccccc1)N1C[C@H]2CC[C@@H](C1)N(Cc1cc(F)ccc1Cl)C2 unit_text=% endpoint_value=-4.39
compound=CC(C)N1CCC(Cc2cncc(-c3ccccc3C(=O)O)n2)CC1 unit_text=% endpoint_value=0.822
compound=COCC(=O)N1CCN(CCn2cccn2)c2nc(C)ccc2C1 unit_text=% endpoint_value=10.5
compound=CN(Cc1nc2ccccc2n1C)C(=O)CCc1cscn1 unit_text=% endpoint_value=-159
compound="O=C(c1ccco1)N1CCCC2(CN(Cc3ccsc3)CCO2)C1 (stereo not drawn)" unit_text=% endpoint_value=-2.37
compound=O=c1[nH]c(-c2ccccc2F)nc2c1CCNC2 unit_text=% endpoint_value=-2.72
compound=CCN1CCN(C(=O)c2cnn(-c3ccccc3Cl)c2)CC1 unit_text=% endpoint_value=-11.5
compound=O=C(c1ccco1)N1CC[C@H]2[C@H]1CCN2S(=O)(=O)C1CC1 unit_text=% endpoint_value=9.22
compound="Cc1cn2c(n1)CCC(NC(=O)c1csc(C(C)C)n1)C2 (stereo not drawn)" unit_text=% endpoint_value=-16.4
compound="Cn1nnc2c1C(COCC1CC1)CN(C(=O)Cc1ccccn1)C2 (stereo not drawn)" unit_text=% endpoint_value=13.5

Report cytotoxicity at 10 µM for each item below.
1. CN(C)C(=O)CS(=O)(=O)Cc1cc(Cl)c2c(c1)OCCO2
2. O=C(C1CCOCC1)N1C[C@@H]2CC[C@H]1CN(C1Cc3ccccc3C1)C2
3. O=C1N(c2ccccc2)C[C@H]2CN(C3CCC3)CCN12
4. CC(C)c1nc(CS(=O)(=O)Cc2noc(C3CC3)n2)cs1

1.38
-0.317
6.09
6.16

Report cytotoxicity at 10 µM for each item below.
1. CCN(Cc1cnn(CC)c1)C(=O)Cn1c(=O)ccc2ccccc21
2. CN(Cc1c[nH]nc1-c1ccc(F)cc1F)Cc1nccn1C
3. CCCC1SCCN1C(=O)c1ccc(-n2ncc(C#N)c2N)cc1 (stereo not drawn)
4. CCC[C@@H]1CN(Cc2ccc(C(F)(F)F)nc2)C[C@H]1C(=O)O
5. CCS(=O)(=O)N1CCC2(CCC(N3CCCC3)c3ccccc32)CC1 (stereo not drawn)

[2.37, 2.5, 9.15, 0.425, 0.257]

Report cytotoxicity at 10 µM for each item below.
1. COc1ccccc1CCNC(=O)CN1CCCC1c1noc(C)n1 (stereo not drawn)
2. C/C=C(\C)CN1C[C@H](NC(=O)CN2CCCC2=O)[C@@H](c2ccc(C)o2)C1
3. CC(C)c1cc(C(=O)N2CCc3ccccc3C2C(=O)O)nn1C (stereo not drawn)
4. COC(=O)CN1CCCn2nc(CCC(=O)N3CCCC3)cc2C1

1. -3.81
2. 10.8
3. -2.53
4. -204
